- Measured on: human recombinant histamine H2 receptor (Homo sapiens, UniProt P25021)
- Construct: expressed in transfected cells; host or cells: CHO-K1 cells
- Sequence (P25021 whole entry): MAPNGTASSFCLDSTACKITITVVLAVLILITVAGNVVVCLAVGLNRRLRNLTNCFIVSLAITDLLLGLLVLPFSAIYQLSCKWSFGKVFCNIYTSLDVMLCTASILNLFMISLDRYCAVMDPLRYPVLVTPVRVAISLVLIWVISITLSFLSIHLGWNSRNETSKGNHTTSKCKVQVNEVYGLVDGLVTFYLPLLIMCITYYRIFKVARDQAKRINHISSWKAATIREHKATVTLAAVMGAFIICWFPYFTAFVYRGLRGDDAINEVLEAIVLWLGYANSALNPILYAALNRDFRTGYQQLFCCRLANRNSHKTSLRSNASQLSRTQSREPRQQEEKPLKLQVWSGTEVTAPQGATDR
- Assay explanation: Histamine H2 radioligand binding ([125I]Aminopotentidine)
- Condition set: 1 μM; inhibition of specific [125I]Aminopotentidine binding; read-out: Binding data (Percentage Inhibition) Histamine Binding (1 μM) H2
Kindly return YES if reported inhibition at 1 µM is no lower than 50%; return NO if it is lower.

// below: answered compounds
C/C(=C/n1c2c(c3cc(C)ccc31)CCN(C)C2C)c1ccccc1F (stereo not shown); NO
C/C(=C\n1c2c(c3cc(Cl)ccc31)CCN(C)C2C)c1ccc(Cl)cc1 (stereo not shown); YES
CCC1c2c(c3cc(C)ccc3n2/C=C(\C)c2ccc(Cl)cc2Cl)CCN1C (stereo not shown); YES

Problem: Does inhibition at 1 µM meet or surpass 50% for CN1CCc2c(n(CC(C)(O)c3ccc(F)cc3)c3ccc(Cl)cc23)C1 (stereo not shown) ?
Solution: NO

Problem: Does inhibition at 1 µM meet or surpass 50% for COc1ccc(C(O)Cn2c3c(c4cc(Cl)ccc42)CCN(C)C3)cc1OC (stereo not shown) ?
Solution: NO

Problem: Does inhibition at 1 µM meet or surpass 50% for "CN1CCc2c(n(CC(=O)O)c3ccc(Cl)cc23)C1" ?
Solution: NO

====

- Measured on: human recombinant serotonin (5-Hydroxytryptamine) 5-HT2A receptor (Homo sapiens)
- Construct: expressed in transfected cells; host or cells: CHO-K1 cells
- Sequence (P28223 whole entry): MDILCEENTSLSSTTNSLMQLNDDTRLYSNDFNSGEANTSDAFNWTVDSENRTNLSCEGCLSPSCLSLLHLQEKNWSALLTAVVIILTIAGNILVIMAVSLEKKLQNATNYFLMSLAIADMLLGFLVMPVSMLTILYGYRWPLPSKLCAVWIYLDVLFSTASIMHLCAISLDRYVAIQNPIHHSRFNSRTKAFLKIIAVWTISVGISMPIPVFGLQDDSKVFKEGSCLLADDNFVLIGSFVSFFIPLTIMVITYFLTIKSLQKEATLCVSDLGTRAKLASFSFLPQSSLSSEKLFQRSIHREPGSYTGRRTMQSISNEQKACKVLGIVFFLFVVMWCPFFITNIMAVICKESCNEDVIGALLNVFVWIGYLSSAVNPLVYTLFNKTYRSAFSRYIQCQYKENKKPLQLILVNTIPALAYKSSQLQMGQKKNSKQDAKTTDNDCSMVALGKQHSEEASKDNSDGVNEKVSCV
- Assay explanation: Serotonin 5-HT2A radioligand binding ([3H]Ketanserin)
- Condition set: 1 h; read-out: Percent Inhibition of ligand binding Serotonin (1 μM ligand concentration) 5-HT2A
Quantity: inhibition at 1 µM (%)
State just the number; it will be interpreted in %.

C/C(=C/n1c2c(c3cc(C)ccc31)CCN(C)C2C)c1ccc(Cl)cc1Cl (stereo not drawn); 80

Problem: Identify inhibition at 1 µM associated with the compound "Cc1ccc2c(c1)c1c(n2C#Cc2ccc(Cl)cc2)CN(C)CC1"
Solution: 91

====

- Measured on: human recombinant serotonin (5-Hydroxytryptamine) 5-HT6 receptor (Homo sapiens, UniProt P50406)
- Construct: expressed in transfected cells; host or cells: human HeLa cells
- Sequence (P50406 whole entry): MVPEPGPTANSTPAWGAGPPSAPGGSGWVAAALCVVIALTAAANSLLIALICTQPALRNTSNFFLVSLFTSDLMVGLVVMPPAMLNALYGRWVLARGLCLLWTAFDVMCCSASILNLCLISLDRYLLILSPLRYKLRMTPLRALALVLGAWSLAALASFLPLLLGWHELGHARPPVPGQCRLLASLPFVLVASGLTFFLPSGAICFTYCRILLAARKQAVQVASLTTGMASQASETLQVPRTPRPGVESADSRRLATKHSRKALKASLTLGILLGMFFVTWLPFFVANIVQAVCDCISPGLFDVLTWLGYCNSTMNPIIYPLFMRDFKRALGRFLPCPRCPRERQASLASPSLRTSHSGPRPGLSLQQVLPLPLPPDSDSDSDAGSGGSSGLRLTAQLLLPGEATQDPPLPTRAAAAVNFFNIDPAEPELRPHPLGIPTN
- Assay explanation: Serotonin 5-HT6 radioligand binding ([3H]LSD)
- Condition set: compound concentration 0.3 μM; read-out: Percentage inhibition of ligand binding to 5-HT6 receptor
- Procedure: To evaluate in radioligand binding assays the activity of compounds of the invention, human recombinant serotonin (5-Hydroxytryptamine) 5-HT6 receptor expressed in human HeLa cells (Monsma, F. J. Jr. et al., Mol. Pharmacol. 43:320, 1993) in a modified Tris-HCl buffer (50 mM Tris-HCl, pH 7.4, 150 mM NaCl, 2 mM Ascorbic Acid, 0.001% BSA) was used. […] Receptor proteins were filtered and washed, the filters were then counted to determine [3H]LSD specifically bound. […]
Quick list: inhibition at 0.3 µM per entry.
Include the unit after the number when you answer.

C/C(=C\n1c2c(c3cc(C)ccc31)CCN(C)C2C)c1ccccc1F (stereo not shown) [Compound 166]; 55%

Problem: Identify inhibition at 0.3 µM associated with the molecule Cc1ccc2c(c1)c1c(n2/C=C/c2ccccc2)CN(C)CC1 [Compound 92]
Solution: 81%

Problem: Identify inhibition at 0.3 µM associated with the molecule C/C(=C\n1c2c(c3cc(C)ccc31)CCN(C)C2)c1ccc(F)cc1 [Compound 91]
Solution: 96%

Problem: Identify inhibition at 0.3 µM associated with the molecule C/C(=C\n1c2c(c3cc(Cl)ccc31)CCN(C)C2)c1ccc(F)cc1 [Compound 90]
Solution: 94%

====

- Measured on: human recombinant serotonin (5-Hydroxytryptamine) 5-HT2C receptor (Homo sapiens, UniProt P28335)
- Construct: expressed in transfected cells; host or cells: CHO-K1 cells
- Sequence (P28335 33-458): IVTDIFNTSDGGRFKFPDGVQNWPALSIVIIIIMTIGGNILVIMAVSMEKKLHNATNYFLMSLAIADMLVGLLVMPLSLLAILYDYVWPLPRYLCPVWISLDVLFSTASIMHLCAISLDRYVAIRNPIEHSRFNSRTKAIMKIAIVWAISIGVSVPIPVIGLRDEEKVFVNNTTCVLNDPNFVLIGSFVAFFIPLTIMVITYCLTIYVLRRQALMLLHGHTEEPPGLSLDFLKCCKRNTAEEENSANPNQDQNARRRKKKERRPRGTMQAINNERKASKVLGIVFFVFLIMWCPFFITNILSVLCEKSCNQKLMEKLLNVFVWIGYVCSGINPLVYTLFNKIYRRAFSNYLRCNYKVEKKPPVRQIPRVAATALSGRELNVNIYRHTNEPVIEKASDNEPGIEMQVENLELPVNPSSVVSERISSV
- Assay explanation: Serotonin 5-HT2C radioligand binding ([3H]Mesulergine)
- Condition set: 1 h; read-out: Percent Inhibition of ligand binding Serotonin (1 μM ligand concentration) 5-HT2C
- Protocol: Compounds of the invention were incubated with 1 nM [^3H]Mesulergine for 60 minutes at 25° C. Non-specific binding was estimated in the presence of 1 μM Mianserin. Receptor proteins were filtered and washed, the filters were then counted to determine [^3H]Mesulergine specifically bound. […] Biochemical assay results are presented as the percent inhibition of specific binding in Table 5.
Quantity: inhibition at 1 µM (%)
State just the number; it will be interpreted in %.

Completed entries (count: 4):
CN1CCc2c(n(CC(=O)O)c3ccc(Cl)cc23)C1; -4
C/C(=C\n1c2c(c3cc(Cl)ccc31)CCN(C)C2)c1ccc(Cl)cc1; 103
Cc1ccc(C(O)Cn2c3c(c4cc(C)ccc42)CCN(C)C3)cc1 (centres unmarked); 89
Cc1ccc2c(c1)c1c(n2CC(=O)O)CN(C)CC1; -3

In the following, a different compound is considered.
Problem: Identify inhibition at 1 µM associated with the compound "C/C(=C\n1c2c(c3cc(Cl)ccc31)CCN(C)C2)c1ccc(F)cc1"
Solution: 99

====

- Measured on: human recombinant adrenergic α1D receptor (Homo sapiens, UniProt P25100)
- Construct: expressed in transfected cells; host or cells: HEK-293 cells
- Sequence (P25100 whole entry): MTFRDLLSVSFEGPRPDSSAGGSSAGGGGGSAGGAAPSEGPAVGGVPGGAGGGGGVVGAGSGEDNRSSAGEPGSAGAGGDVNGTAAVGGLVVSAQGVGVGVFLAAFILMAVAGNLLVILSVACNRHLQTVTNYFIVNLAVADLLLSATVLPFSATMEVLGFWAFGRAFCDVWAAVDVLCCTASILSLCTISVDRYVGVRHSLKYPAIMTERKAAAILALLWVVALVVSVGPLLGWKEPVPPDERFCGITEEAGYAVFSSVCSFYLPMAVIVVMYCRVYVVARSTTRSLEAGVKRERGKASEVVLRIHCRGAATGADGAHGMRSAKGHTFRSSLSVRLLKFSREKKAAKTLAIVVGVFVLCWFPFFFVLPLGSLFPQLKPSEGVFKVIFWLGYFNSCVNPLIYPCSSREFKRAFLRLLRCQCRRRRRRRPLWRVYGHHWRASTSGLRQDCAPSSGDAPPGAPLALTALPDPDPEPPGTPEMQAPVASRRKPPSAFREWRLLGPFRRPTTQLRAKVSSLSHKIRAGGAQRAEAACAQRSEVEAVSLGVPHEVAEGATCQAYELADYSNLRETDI
- Assay explanation: Adrenergic α1D radioligand binding ([3H]Prozosin)
- Condition set: 1 h; read-out: Percent Inhibition of ligand binding Adrenergic (1 μM ligand conc.) α1D
Kindly return satisfied if reported inhibition at 1 µM is no lower than 60%; return not satisfied if it is lower.

// below: answered compounds
Cc1ccc2c(c1)c1c(n2C(=O)Cc2ccc(Cl)cc2)C(c2ccccc2)N(C)CC1 (stereo not shown) [Compound 163]; satisfied
C/C(=C\n1c2c(c3cc(C)ccc31)CCN(C)C2C)c1ccccc1F (stereo not shown) [Compound 166]; satisfied
CN1CCc2c(n(CCc3ccc(F)cc3)c3ccc(Cl)cc23)C1 [Compound 3]; satisfied
CC1CCN(C(=O)Cn2c3c(c4cc(Cl)ccc42)CCN(C)C3)CC1 [Compound 38]; not satisfied

Problem: Does inhibition at 1 µM meet or surpass 60% for CN1CCc2c(n(CC(=O)N3CCCCC3)c3ccc(Cl)cc23)C1 [Compound 58] ?
Solution: not satisfied

Problem: Does inhibition at 1 µM meet or surpass 60% for CC(C)CCN(C)C(=O)Cn1c2c(c3cc(Cl)ccc31)CCN(C)C2 [Compound 14] ?
Solution: not satisfied

Problem: Does inhibition at 1 µM meet or surpass 60% for COc1ccc(C(O)Cn2c3c(c4cc(C)ccc42)CCN(C)C3)cc1OC (stereo not shown) [Compound 66] ?
Solution: satisfied

Problem: Does inhibition at 1 µM meet or surpass 60% for CN1CCc2c(n(CC(=O)O)c3ccc(Cl)cc23)C1 [Compound 52] ?
Solution: not satisfied

Problem: Does inhibition at 1 µM meet or surpass 60% for CN1CCc2c(n(CCN3CCCCC3)c3ccc(Cl)cc23)C1 [Compound 34] ?
Solution: not satisfied

Problem: Does inhibition at 1 µM meet or surpass 60% for Cc1ccc2c(c1)c1c(n2CCC2CCCCC2)CN(C)CC1 [Compound 2] ?
Solution: not satisfied

Problem: Does inhibition at 1 µM meet or surpass 60% for Cc1ccc2c(c1)c1c(n2CC(=O)N2CCCCC2)CN(C)CC1 [Compound 57] ?
Solution: satisfied

Problem: Does inhibition at 1 µM meet or surpass 60% for CN1CCc2c(n(CC(=O)N(C)C3CCCCC3)c3ccc(Cl)cc23)C1 [Compound 18] ?
Solution: not satisfied

Problem: Does inhibition at 1 µM meet or surpass 60% for CC1c2c(c3cc(Cl)ccc3n2CCc2ccc(F)cc2)CCN1C (stereo not shown) [Compound 81] ?
Solution: satisfied

Problem: Does inhibition at 1 µM meet or surpass 60% for CN1CCc2c(n(CC(C)(O)c3ccc(F)cc3)c3ccc(Cl)cc23)C1 (stereo not shown) [Compound 62] ?
Solution: not satisfied

Problem: Does inhibition at 1 µM meet or surpass 60% for Cc1ccc2c(c1)c1c(n2CC(C)(O)c2ccc(F)cc2)CN(C)CC1 (stereo not shown) [Compound 61] ?
Solution: not satisfied

Problem: Does inhibition at 1 µM meet or surpass 60% for C/C(=C\n1c2c(c3cc(Cl)ccc31)CCN(C)C2C)c1ccccc1F (stereo not shown) [Compound 168] ?
Solution: not satisfied

Problem: Does inhibition at 1 µM meet or surpass 60% for Cc1ccc(CCCn2c3c(c4cc(Cl)ccc42)CCN(C)C3)cn1 [Compound 56] ?
Solution: not satisfied

Problem: Does inhibition at 1 µM meet or surpass 60% for CC1c2c(c3cc(Cl)ccc3n2C#Cc2ccc(Cl)cc2)CCN1C (stereo not shown) [Compound 132] ?
Solution: not satisfied

====

Quick list: inhibition at 1 µM per entry.
- Measured on: human recombinant adrenergic α2B receptor (Homo sapiens)
- Construct: expressed in transfected cells; host or cells: CHO-K1 cells
- Sequence (P18089 1-450): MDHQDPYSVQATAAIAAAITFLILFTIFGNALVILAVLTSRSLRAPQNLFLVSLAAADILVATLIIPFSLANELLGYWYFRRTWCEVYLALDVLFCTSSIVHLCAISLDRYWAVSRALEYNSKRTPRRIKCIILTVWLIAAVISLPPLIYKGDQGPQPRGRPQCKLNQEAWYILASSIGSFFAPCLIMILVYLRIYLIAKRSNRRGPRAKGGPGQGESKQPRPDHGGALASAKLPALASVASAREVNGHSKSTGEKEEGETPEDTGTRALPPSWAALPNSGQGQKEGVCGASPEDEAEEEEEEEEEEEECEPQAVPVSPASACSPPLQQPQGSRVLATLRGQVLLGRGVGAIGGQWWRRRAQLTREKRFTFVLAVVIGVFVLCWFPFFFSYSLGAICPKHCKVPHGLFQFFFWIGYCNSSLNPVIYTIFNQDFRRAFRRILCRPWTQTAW
- Assay explanation: Adrenergic α2B radioligand binding ([3H]Rauwolscine)
- Condition set: compound concentration 1 μM; read-out: Percentage inhibition of ligand binding to Adrenergic α2B receptor
State just the number; it will be interpreted in %.

Completed entries (count: 3):
C/C(=C\n1c2c(c3cc(Cl)ccc31)CCN(C)C2)c1ccc(F)cc1; 97
C/C(=C\n1c2c(c3cc(C)ccc31)CCN(C)C2)c1ccc(F)cc1; 94
Cc1ccc2c(c1)c1c(n2/C=C/c2ccccc2)CN(C)CC1; 104

Problem: Identify inhibition at 1 µM associated with the molecule C/C(=C\n1c2c(c3cc(C)ccc31)CCN(C)C2C)c1ccccc1F (stereo not shown)
Solution: 106
